Target: recombinant influenza HA3-protein (from H3N2, Wyoming, March 2003, Sino Biological Inc.) (influenza H3N2, Wyoming, March 2003)
Experiment: SPR imaging (IBIS MX96), antibody captured on anti-human-IgG chip, HA3 injected at 1 µg/ml, global 1:1 fit
ENDPOINT NAME: pKd
Answer as the number alone; pKd is minus log10 of concentration in mol/L.

[in] # input binder: AT10-004 (antibody, V domains shown) VH: RASQSVSRYLA VL: RASQSVSRYLA ; wanted: its pKd
[out] 10.15
